Just for reference, ChEMBL document CHEMBL1649332 is where these values come from.

Test system: Neisseria gonorrhoeae
Assay Method Text: Antimicrobial activity against Neisseria gonorrhoeae assessed as resistant isolates by EUCAST method
Assay type: functional
Endpoint Label: Activity (%)
Numbers only, in %.

Worked cases, answers included:
## Input Requested read-out: Activity. Entry: CN(C)[C@@H]1C(O)=C(C(N)=O)C(=O)[C@@]2(O)C(O)=C3C(=O)c4c(O)cccc4[C@@](C)(O)[C@H]3C[C@@H]12
## Output 34.3

## Input Requested read-out: Activity. Entry: CO/N=C(\C(=O)N[C@@H]1C(=O)N2C(C(=O)O)=C(CSc3nc(=O)c(O)nn3C)CS[C@H]12)c1csc(N)n1
## Output 0

## Input Requested read-out: Activity. Entry: CC1(C)S[C@@H]2[C@H](NC(=O)Cc3ccccc3)C(=O)N2[C@H]1C(=O)O
## Output 45.7

Attention now turns to another entry.
## Input Requested read-out: Activity. Entry: CC[C@H]1OC(=O)[C@H](C)[C@@H](O[C@H]2C[C@@](C)(OC)[C@@H](O)[C@H](C)O2)[C@H](C)[C@@H](O[C@@H]2O[C@H](C)C[C@H](N(C)C)[C@H]2O)[C@](C)(O)C[C@@H](C)CN(C)[C@H](C)[C@@H](O)[C@]1(C)O
## Output 5.7
